Recorded values, source patent US8163771B2.

tgt: recombinant human 11 β-HSD1 (Homo sapiens, UniProt P28845)
Sequence (P28845 whole entry): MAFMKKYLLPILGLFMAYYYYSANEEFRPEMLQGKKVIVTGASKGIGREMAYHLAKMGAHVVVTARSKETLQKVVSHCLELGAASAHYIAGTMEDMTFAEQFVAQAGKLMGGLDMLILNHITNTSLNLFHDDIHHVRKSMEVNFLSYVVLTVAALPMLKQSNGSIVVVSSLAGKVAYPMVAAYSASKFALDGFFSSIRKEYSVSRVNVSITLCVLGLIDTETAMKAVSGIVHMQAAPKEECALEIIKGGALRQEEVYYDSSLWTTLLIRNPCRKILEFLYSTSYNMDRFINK
protocol description: 11 β-HSD1 SPA Assay (Scintillation Proximity Assay)
readout kind: IC50

// worked examples, IC50 included
[[record]]
compound = "CC(C)(Oc1ccc(Cl)cc1Cl)C(=O)N[C@H]1C[C@H]2CC[C@@H](C1)N2c1ccc(C(=O)NC2CC2)cn1 [Example 31]"
readout_kind = "IC50"
assay_value = "< 200 nM"

[[record]]
compound = "CC(C)(Oc1cc(OC(C)(C)C(=O)N[C@H]2C[C@H]3CC[C@@H](C2)N3c2ccc(C(=O)NCC(F)(F)F)cn2)c(Cl)cc1Cl)C(=O)O [Example 414]"
readout_kind = "IC50"
assay_value = "< 2000 nM"

[[record]]
compound = "O=C(NC1CC1)c1ccc(N2[C@@H]3CC[C@H]2C[C@@H](NC(=O)C2(c4ccc(Cl)cc4)CC2)C3)c(F)c1 [Example 148]"
readout_kind = "IC50"
assay_value = "< 200 nM"

[[record]]
compound = "CC(C)(Oc1ccc(C#N)cc1)C(=O)N[C@H]1C[C@H]2CC[C@@H](C1)N2c1ccc(C(=O)NC2CC2)cn1 [Example 38]"
readout_kind = "IC50"
assay_value = "< 200 nM"

[[record]]
compound = "CC(C)(Oc1ncc(Cl)cc1F)C(=O)N[C@H]1C[C@H]2CC[C@@H](C1)N2c1ccc(C(=O)NCC(F)(F)F)cn1 [Example 127]"
readout_kind = "IC50"
assay_value = "< 200 nM"

[[record]]
compound = "CC(C)(Oc1ccc(C(C)(C)O)cc1Cl)C(=O)N[C@H]1C[C@H]2CC[C@@H](C1)N2c1ccc(C(=O)NCC(F)F)cn1 [Example 471]"
readout_kind = "IC50"
assay_value = "< 200 nM"

[[record]]
compound = "Cc1cc(F)ccc1OC(C)(C)C(=O)N[C@H]1C[C@H]2CC[C@@H](C1)N2c1ccc(S(N)(=O)=O)cn1 [Example 218]"
readout_kind = "IC50"
assay_value = "< 200 nM"

[[record]]
compound = "CC(C)(Oc1ncc(C(F)(F)F)cc1Cl)C(=O)N[C@H]1C[C@H]2CC[C@@H](C1)N2c1ccc(S(C)(=O)=O)cn1 [Example 248]"
readout_kind = "IC50"
assay_value = "< 2000 nM"


The reported recombinant human 11 β-HSD1 (Homo sapiens, UniProt P28845) IC50 of CC(C)(Oc1cc(C(C)(C)C(=O)O)c(Cl)cc1Cl)C(=O)N[C@H]1C[C@H]2CC[C@@H](C1)N2c1ccc(C(=O)NCC(F)(F)F)cn1 [Example 445] is < 200 nM

Recorded IC50 for CC(=O)Nc1ccc(N2[C@@H]3CC[C@H]2C[C@@H](NC(=O)C(C)(C)Oc2ccc(Cl)cc2Cl)C3)cc1 [Example 115] on recombinant human 11 β-HSD1 (Homo sapiens, UniProt P28845) was < 200 nM

Result for CC(C)(Oc1c(Cl)cc(F)cc1C(F)(F)F)C(=O)N[C@H]1C[C@H]2CC[C@@H](C1)N2c1ccc(S(N)(=O)=O)cn1 [Example 251] , tested on recombinant human 11 β-HSD1 (Homo sapiens, UniProt P28845), IC50: < 200 nM

====

tgt: recombinant human 11 β-HSD1 (Homo sapiens, UniProt P28845)
protocol description: 11 β-HSD1 SPA Assay (Scintillation Proximity Assay)
pIC50: −log10 of the molar value.
Each item that follows carries a reported pIC50.

Recorded results for 8 compounds are shown here.
[[record]]
compound = "CC(=O)Nc1ccc(N2[C@@H]3CC[C@H]2C[C@@H](NC(=O)C(C)(C)Oc2ccc(Cl)cc2Cl)C3)nc1 [Example 94]"
tgt = "recombinant human 11 β-HSD1 (Homo sapiens, UniProt P28845)"
assay_value = "> 6.70"

[[record]]
compound = "CCN(CC)CCNC(=O)c1ccc(N2[C@@H]3CC[C@H]2C[C@@H](NC(=O)C(C)(C)Oc2ccc(Cl)cc2Cl)C3)nc1 [Example 377]"
tgt = "recombinant human 11 β-HSD1 (Homo sapiens, UniProt P28845)"
assay_value = "> 6.70"

[[record]]
compound = "CC(C)NC(=O)c1ccc(N2[C@@H]3CC[C@H]2C[C@@H](NC(=O)C(C)(C)Oc2cc(C(C)(C)O)c(Cl)cc2Cl)C3)nc1 [Example 477]"
tgt = "recombinant human 11 β-HSD1 (Homo sapiens, UniProt P28845)"
assay_value = "> 6.70"

[[record]]
compound = "CC(C)(Oc1ccc(F)cc1C(F)(F)F)C(=O)N[C@H]1C[C@H]2CC[C@@H](C1)N2c1ccc(S(N)(=O)=O)cn1 [Example 177]"
tgt = "recombinant human 11 β-HSD1 (Homo sapiens, UniProt P28845)"
assay_value = "> 6.70"

[[record]]
compound = "CC(C)(Oc1ccc(F)cc1F)C(=O)N[C@H]1C[C@H]2CC[C@@H](C1)N2c1ccc(S(N)(=O)=O)cn1 [Example 294]"
tgt = "recombinant human 11 β-HSD1 (Homo sapiens, UniProt P28845)"
assay_value = "> 6.70"

[[record]]
compound = "NC(=O)c1ccc(N2[C@@H]3CC[C@H]2C[C@@H](NC(=O)C2(c4ccc(Cl)c(Cl)c4)CC2)C3)nc1 [Example 103]"
tgt = "recombinant human 11 β-HSD1 (Homo sapiens, UniProt P28845)"
assay_value = "> 6.70"

[[record]]
compound = "CC(C)(Oc1ccc(Cl)cc1Cl)C(=O)N[C@H]1C[C@H]2CC[C@@H](C1)N2c1ccc(C(=O)NC2CC2)cc1 [Example 132]"
tgt = "recombinant human 11 β-HSD1 (Homo sapiens, UniProt P28845)"
assay_value = "> 6.70"

[[record]]
compound = "COCCNC(=O)c1ccc(N2[C@@H]3CC[C@H]2C[C@@H](NC(=O)C(C)Oc2ccc(Cl)cc2Cl)C3)nc1 (stereo partly shown) [Example 68]"
tgt = "recombinant human 11 β-HSD1 (Homo sapiens, UniProt P28845)"
assay_value = "> 5.70"


Entry CC(C)(Oc1ccc(C(F)(F)F)cc1)C(=O)N[C@H]1C[C@H]2CC[C@@H](C1)N2c1ccc(S(C)(=O)=O)cn1 [Example 243] , pIC50 reported as > 5.70

compound CC(C)(Oc1ccc(C(F)(F)F)cn1)C(=O)N[C@H]1C[C@H]2CC[C@@H](C1)N2c1ccc(C(=O)NCC(F)(F)F)cn1 [Example 152] , pIC50 observed: > 5.70

Documented pIC50 of C[C@H](NC(=O)c1ccc(N2C3CCC2CC(NC(=O)C(C)(C)Oc2ncc(Cl)cc2F)C3)nc1)C(F)(F)F (stereo partly shown) [Example 419] : > 5.70

Briefly, pIC50 measured for CC(C)(Oc1ccccc1Cl)C(=O)N[C@H]1C[C@H]2CC[C@@H](C1)N2c1ccc(C(=O)NC2CC2)cn1 [Example 24] : > 6.70

For CC(C)(Oc1cc(Cl)ccc1Cl)C(=O)N[C@H]1C[C@H]2CC[C@@H](C1)N2c1ccc(C(=O)NC2CC2)cn1 [Example 71] the compound record lists pIC50 as > 6.70

====

// reported IC50 for each item listed
tgt: recombinant human 11 β-HSD1 (Homo sapiens)
Construct: made in house; host or cells: E. coli
protocol description: 11 β-HSD1 SPA Assay (Scintillation Proximity Assay)
Assay type: biochemical

Worked examples follow.
[[record]]
compound = "CC(C)(Oc1ccc(Cl)cc1Cl)C(=O)N[C@H]1C[C@H]2CC[C@@H](C1)N2c1ccc(C(=O)NC2COC2)cn1"
readout_kind = "IC50"
assay_value = "< 0.2 µM"

[[record]]
compound = "CC(C)(Oc1ccc(Cl)cc1OC(F)(F)F)C(=O)NC1CC2CCC(C1)N2c1ccc(C(=O)N2CCC(O)C2)cn1 (stereo not shown)"
readout_kind = "IC50"
assay_value = "< 0.2 µM"

[[record]]
compound = "CC(C)(Oc1ccc(C(F)(F)F)cn1)C(=O)N[C@H]1C[C@H]2CC[C@@H](C1)N2c1ccc(C(N)=O)cn1"
readout_kind = "IC50"
assay_value = "< 0.2 µM"

[[record]]
compound = "CC(C)(Oc1ccc(C(F)(F)F)cc1Cl)C(=O)N[C@H]1C[C@H]2CC[C@@H](C1)N2c1ccc(C(N)=O)cn1"
readout_kind = "IC50"
assay_value = "< 0.2 µM"

[[record]]
compound = "CC(C)(Oc1cc(F)c(F)cc1Cl)C(=O)N[C@H]1C[C@H]2CC[C@@H](C1)N2c1ccc(C(=O)NCC(F)(F)F)cn1"
readout_kind = "IC50"
assay_value = "< 0.2 µM"


Measured IC50 of CC(C)(Oc1ccc(F)cc1S(C)(=O)=O)C(=O)N[C@H]1C[C@H]2CC[C@@H](C1)N2c1ccc(C(N)=O)cn1 : < 0.2 µM

Reported IC50 of CC(C)(Oc1cc(F)c(F)cc1F)C(=O)N[C@H]1C[C@H]2CC[C@@H](C1)N2c1ccc(S(C)(=O)=O)cc1 : < 2 µM

Record CC(C)(Oc1c(Cl)cc(F)cc1Cl)C(=O)N[C@H]1C[C@H]2CC[C@@H](C1)N2c1ccc(S(C)(=O)=O)cn1 . Reported IC50: < 0.2 µM

Notebook: CC(C)(Oc1ccc(C(C)(C)O)cc1Cl)C(=O)N[C@H]1C[C@H]2CC[C@@H](C1)N2c1ccc(C(=O)NCC(F)(F)F)cn1 , IC50 read as < 0.2 µM

// sample C[C@@H](NC(=O)c1ccc(N2C3CCC2CC(NC(=O)C(C)(C)Oc2cc(F)c(Cl)cc2Cl)C3)nc1)C(F)(F)F (stereo partly shown) , its IC50 was < 0.2 µM

The recorded IC50 for entry CC(C)(Oc1ccc(F)c(F)c1)C(=O)N[C@H]1C[C@H]2CC[C@@H](C1)N2c1ccc(S(N)(=O)=O)cn1 equals < 2 µM

Sure, the documented IC50 for CC(C)(Oc1cc(F)ccc1Cl)C(=O)N[C@H]1C[C@H]2CC[C@@H](C1)N2c1ccc(C(=O)NC2CC2)cn1 is < 0.2 µM

Recorded result, CC(C)(Oc1ccc(Cl)cc1Cl)C(=O)N[C@H]1C[C@H]2CC[C@@H](C1)N2c1ccc(C(=O)O)cn1 , IC50: < 0.2 µM
